# assayed-target: CDK7/CycH/MNAT1 (Homo sapiens (Human), UniProt P50613)
# Sequence (P50613 whole entry): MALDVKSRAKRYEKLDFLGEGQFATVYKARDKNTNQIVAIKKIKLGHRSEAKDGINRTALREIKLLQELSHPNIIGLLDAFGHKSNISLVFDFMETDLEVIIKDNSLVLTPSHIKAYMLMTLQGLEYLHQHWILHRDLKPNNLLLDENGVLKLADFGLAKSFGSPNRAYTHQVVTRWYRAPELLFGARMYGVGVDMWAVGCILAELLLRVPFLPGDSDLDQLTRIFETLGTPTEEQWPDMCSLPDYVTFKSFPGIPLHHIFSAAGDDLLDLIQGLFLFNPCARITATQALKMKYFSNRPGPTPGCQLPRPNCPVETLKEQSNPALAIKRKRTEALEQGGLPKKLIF
# Sequence (P51946 whole entry partner): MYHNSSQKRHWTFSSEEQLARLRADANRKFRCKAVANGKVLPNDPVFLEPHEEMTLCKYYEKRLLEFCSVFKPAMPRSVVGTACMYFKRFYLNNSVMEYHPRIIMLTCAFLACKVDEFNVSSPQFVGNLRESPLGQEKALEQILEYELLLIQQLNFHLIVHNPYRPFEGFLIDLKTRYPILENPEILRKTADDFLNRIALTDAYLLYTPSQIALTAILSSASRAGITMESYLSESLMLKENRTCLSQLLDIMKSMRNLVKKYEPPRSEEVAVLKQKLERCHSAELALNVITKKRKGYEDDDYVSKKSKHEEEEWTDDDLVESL
# Sequence (P51948 whole entry partner): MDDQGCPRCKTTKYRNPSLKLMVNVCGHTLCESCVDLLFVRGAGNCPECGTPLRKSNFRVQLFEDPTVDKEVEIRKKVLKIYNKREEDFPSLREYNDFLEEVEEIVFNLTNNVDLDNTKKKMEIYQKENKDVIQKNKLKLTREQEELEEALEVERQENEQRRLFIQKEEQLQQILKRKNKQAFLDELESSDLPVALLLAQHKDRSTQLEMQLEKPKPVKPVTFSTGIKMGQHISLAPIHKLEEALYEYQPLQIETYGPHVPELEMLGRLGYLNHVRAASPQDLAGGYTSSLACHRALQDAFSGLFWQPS
# run-description: Biochemical Assay for CDK7 (TR-FRET kinase assay)
# condition-details: 10 μM compound; 60 min pre-incubation with kinase; 1 mM ATP
experimental-endpoint: inhibition at 10 µM (%)

I: CC(C)C(C(=O)Nc1cc(C2CC2)[nH]n1)c1cccc(-c2ccc(NC(=O)/C=C/CN(C)C)c(F)c2)c1 (centres unmarked)
II: CC(C(=O)Nc1cc(C2CC2)[nH]n1)c1cccc(-c2ccc(NC/C=C/C(=O)N(C)C)cn2)c1 (centres unmarked)
stdin: Which shows the larger inhibition at 10 µM value: I or II ? Answer = label.
stdout: I

a: CC(C(=O)Nc1cc(C2CC2)[nH]n1)c1cccc(-c2ccc(NC(=O)/C=C/CN3CC[C@@H](F)C3)nc2)c1 (some centres unmarked) [Compound 49]
b: C=CC(=O)Nc1ccc(C(=O)Nc2cccc(Nc3cc(CC)[nH]n3)c2)cc1
stdin: # query: argmin of inhibition at 10 µM over a and b Answer = label.
stdout: b
(b: 62%, a: 89%)

----------
The entries below come with measured IC50 values attached.
# assayed-target: CDK7/CycH/MNAT1 (Homo sapiens (Human))
# run-description: Biochemical Assay for CDK7 (TR-FRET kinase assay)
# condition-details: 60 min pre-incubation with kinase; 1 mM ATP

Known IC50 results, listed for orientation:
CC(C(=O)Nc1cc(C2CC2)[nH]n1)c1cccc(-c2ccc(NC(=O)/C=C/Cn3ccnc3)nc2)c1 (stereo not shown) [Compound 69]; 0.025 to 0.1 µM
CC(C(=O)Nc1cc(C2CC2)[nH]n1)c1cccc(-c2ccc(NC(=O)/C=C/CN(C)C)cc2)c1 (single isomer, unassigned) [Compound 2]; > 0.1 µM
C=CC(=O)Nc1ccc(-c2cccc(C(C)C(=O)Nc3cc(C4CC4)[nH]n3)c2)c(OC)c1 (stereo not shown) [Compound 73]; > 0.1 µM

Proceeding to the next molecule to report its IC50.
stdin: Name the recorded IC50 for COCCN(C)C/C=C/C(=O)Nc1ccc(-c2cccc(C(C)C(=O)Nc3cc(C4CC4)[nH]n3)c2)cn1 (stereo not shown) [Compound 68] .
stdout: < 0.025 µM

----------
# assayed-target: CDK7/CycH/MNAT1 (Homo sapiens (Human), UniProt P50613)
# run-description: Biochemical Assay for CDK7 (TR-FRET kinase assay)
# condition-details: 10 μM compound; 60 min pre-incubation with kinase; 1 mM ATP
experimental-endpoint: inhibition at 10 µM (%)

O=C(/C=C/CN1CCCC1)Nc1ccc(-c2cccc(C3(C(=O)Nc4cc(C5CC5)[nH]n4)CC3)c2)cn1 [Compound 94]; 85
CC(C(=O)Nc1cc(C2CC2)[nH]n1)c1cccc(-c2ccc(NC(=O)/C=C/CN3CCC[C@H]3CC#N)nc2)c1 (stereo partly shown) [Compound 82]; 99
CC(C(=O)Nc1cc(C2CC2)[nH]n1)c1cccc(-c2ccc(NC(=O)/C=C/CN3CCOCC3)c(F)c2)c1 (stereo not shown) [Compound 34]; 88
CC(C(=O)Nc1cc(C2CC2)[nH]n1)c1cccc(-c2ccc(NC(=O)/C=C/CN(C)C)cn2)c1 (stereo not shown) [Compound 16]; 95
CC(C(=O)Nc1cc(C2CC2)[nH]n1)c1cccc(-c2ccc(NC(=O)/C=C/CN3CC[C@@H](F)C3)nc2)c1 (single isomer, unassigned) [Compound 50]; 94
C=CC(=O)Nc1ccc(-c2cccc(C(C)C(=O)Nc3cc(C4CC4)[nH]n3)c2)cc1C (stereo not shown) [Compound 66]; 88
CC(C(=O)Nc1cc(C2CC2)[nH]n1)c1cc(-c2ccc(NC(=O)/C=C/CN(C)C)cc2)ccc1F (stereo not shown) [Compound 5]; 80
